tested on: HaCat; assay: Cytotoxic Profiling of Annotated Libraries Using Quantitative High-Throughput Screening (AID 1296008); conditions: Five cell lines viability, CellTiter-Glo ATP luminescence, 48-72 h; further: nearly all actives have a fitted effect of over 60% in size
Inconclusive results are not listed. Calls of active or inactive are those of the source. The call rests on the fitted dose curve; in most records, active means well fitted inhibition curve with a large enough effect; inconclusive means small, poorly fitted or top-dose-only effect; inactive means flat fitted curve, though single readings scatter.
Lab note: assign the record to one of active, inactive

# example entries with known answers
>>> df
                                test_smiles  class_assignment
0  CCC[C@@H](NC(=O)[C@@H]1[C@H]2CCC[C@@H]2CN1C(=O)[C@@H](NC(=O)[C@@H](NC(=O)c1cnccn1)C1CCCCC1)C(C)(C)C)C(=O)C(=O)NC1CC1          inactive
1  CNc1nc(Nc2ccc(C(=O)N3CCOCC3)cc2OC)ncc1Cl          inactive

QUERY: What is the recorded call for this compound in the test? CC1=C[C@@H]2[C@@H]([C@@H](O)C[C@@]3(C)[C@H]2C[C@@H](C)[C@]3(O)C(=O)CO)[C@@]2(C)Cc3cnn(-c4ccccc4)c3C=C12
RESULT: active

QUERY: Identify the outcome logged in this assay for the compound shown: C[C@@H]1CCO[C@H]2Cn3cc(C(=O)NCc4ccc(F)cc4F)c(=O)c(O)c3C(=O)N12
RESULT: inactive

QUERY: Per the assay record, what outcome was assigned to COc1ccc(Cn2ccc3ccc(C(=O)NO)cc32)cc1 ?
RESULT: inactive

====

experiment: qHTS of pediatric cancer cell lines to identify multiple opportunities for drug repurposing: Primary screen for SK-N-MC cells (AID 1347093); conditions: SK-N-MC viability, CellTiter-Glo luminescence, 48 h; series mostly up to 46 µM
Results filed as inconclusive are left out. Activity calls are given as the source filed them. Calls come from the whole dose curve; as a rule, active = well fitted cell-killing curve with a large enough effect; inconclusive = small, poorly fitted or top-dose-only effect; inactive = no such curve, though single readings can be large or run the other way.
I would appreciate it if you answered using one of these outcomes: active, inactive

Consider the worked cases shown below.
COMPOUND	CLASS ASSIGNMENT
C[C@@H]1[C@H](O)[C@@H](C)C=CC=CC=CC=CC=CC=CC=C[C@H](O[C@@H]2O[C@H](C)[C@H](O)[C@H](N)[C@@H]2O)C[C@@H]2O[C@](O)(C[C@@H](O)C[C@@H](O)[C@H](O)CC[C@@H](O)C[C@@H](O)CC(=O)O[C@H]1C)C[C@H](O)[C@@H]2C(=O)O	active
COc1cc(C=CC(=O)O)ccc1O	active
CC1(C)CC(=O)c2c(C(F)(F)F)nn(-c3ccc(C(N)=O)c(NC4CCC(O)CC4)c3)c2C1 (configuration not stated)	active
CN1CCN(c2cccc(Nc3nc4c(-c5ccc(S(C)(=O)=O)cc5)cccn4n3)c2)CC1	active

QUERY: Please indicate how the test categorized CC(=O)Nc1cccc(-n2c(=O)n(C3CC3)c(=O)c3c(Nc4ccc(I)cc4F)n(C)c(=O)c(C)c32)c1 .
RESULT: active

QUERY: How did this test come out for Cc1c(-c2cccc3c(CCCOc4cccc5ccccc45)c(C(=O)O)n(Cc4cccnc4)c23)c(COc2ccc(N3CCN([S+](=O)([O-])N(C)C)CC3)cc2)nn1C ?
RESULT: active

QUERY: For CN1C(=O)C(Cc2c[nH]c3ccccc23)NC1=S (configuration not stated) , what call appears in the results of this test?
RESULT: inactive

====

experiment: P-glycoprotein substrates identified in KB-3-1 adenocarcinoma cell line, qHTS therapeutic library screen (AID 1346986); conditions: KB-3-1 parental cells viability, CellTiter-Glo, 72 h; series mostly up to 44.5 µM; further: nearly all actives have a fitted effect of over 60% in size
Inconclusive results are not listed. Activity calls are given as the source filed them. The call rests on the fitted dose curve; in most records, active means well fitted inhibition curve with a large enough effect; inconclusive means small, poorly fitted or top-dose-only effect; inactive means no such curve, though single readings can be large or run the other way.
Parameter call: string, one of Yes = active, No = inactive

QUERY: Called result for CN1C(=O)C[C@H](C(=O)N[C@@H](Cc2cnc[nH]2)C(=O)N2CCC[C@@H]2C(N)=O)NC1=O
RESULT: No

QUERY: Assay result, entry COc1ccc2ccc(=O)oc2c1CC=C(C)C — outcome?
RESULT: No

QUERY: Call for entry CNC(=O)c1cc(Oc2ccc(NC(=O)Nc3ccc(Cl)c(C(F)(F)F)c3)c(F)c2)ccn1 :
RESULT: Yes

QUERY: Hey, what did the test say about OC[C@H]1O[C@@H](Oc2ccc(O)cc2)[C@H](O)[C@@H](O)[C@H]1O ?
RESULT: No

QUERY: Query: recorded result category for Nc1[nH]nc2nnc(-c3c(-c4ccccc4)nn4ccccc34)cc12 in this test
RESULT: No

====

tested on: Tov-21-G; experiment: Primary qHTS to identify gynecologic anti-cancer compounds using libraries of approved drugs and bioactive compounds (AID 1345084); details: Gynecologic cancer cell panel viability, ATPlite luminescence, 48 h; series mostly up to 57.5 µM; further: nearly all actives have a fitted effect of over 55% in size
Inconclusive results are not listed. The source made the active and inactive calls. Calls come from the whole dose curve; as a rule, active = well fitted cell-killing curve with a large enough effect; inconclusive = small, poorly fitted or top-dose-only effect, or effect the other way; inactive = flat fitted curve, though single readings scatter.
Give your call using only these classes: yes (1) for active, no (0) for inactive

Check out these entries, answers already filled in.
                                   molecule  measured_target  class_assignment
0  CN1C(=O)C(Cc2c[nH]c3ccccc23)NC1=S (stereo not given)         Tov-21-G            no (0)
1  N#CC1(c2cccc(C(=O)Nc3cc(Oc4ccc5nc(NC(=O)C6CC6)sc5n4)ccc3F)c2Cl)CC1         Tov-21-G           yes (1)
2  NC1(C(=O)N[C@@H](CCO)c2ccc(Cl)cc2)CCN(c2ncnc3[nH]ccc23)CC1         Tov-21-G           yes (1)
3  CN(C)c1nc(Cc2ccc(NC(=O)c3ccc(C(F)(F)F)cc3)cc2)nc(N(C)C)c1CC(=O)O         Tov-21-G            no (0)
4  c1ccc(CNc2nc(N3CCOc4ccccc43)nc3c2CCCC3)cc1         Tov-21-G            no (0)

QUERY: Recorded test outcome, item CCC(=O)N1CCN(c2ccc(-n3c(=O)ccc4cnc5ccc(-c6cnc7ccccc7c6)cc5c43)cc2C(F)(F)F)CC1
RESULT: yes (1)

QUERY: Given C[C@@H](N)c1ccc(C(=O)Nc2ccnc3[nH]ccc23)cc1 , state the outcome it received in this test.
RESULT: yes (1)

====

assay: Quantitative High-Throughput drug screen in 47 multiple myeloma cell lines against the NCATS MIPE library collection: AMO1_DSMZ cell viability assay (AID 1918927; further: nearly all actives have a fitted effect of over 30% in size); conditions: AMO1 myeloma cells viability, CellTiter-Glo ATP luminescence, 48 h; series mostly up to 45.8 µM
Inconclusive results are not listed. Calls of active or inactive are those of the source. The call rests on the fitted dose curve; in most records, active means well fitted cell-killing curve with a large enough effect; inconclusive means small, poorly fitted or top-dose-only effect, or effect the other way; inactive means no such curve, though single readings can be large or run the other way.
Write down the outcome that applies. Available outcomes: 1 (yes) for active, 0 (no) for inactive

COMPOUND	CLASS ASSIGNMENT
CNc1nc(Nc2ccc(C(=O)N3CCOCC3)cc2OC)ncc1Cl	0 (no)
CC(C)CN(C[C@@H](O)[C@H](Cc1ccccc1)NC(=O)O[C@H]1CO[C@H]2OCC[C@H]21)S(=O)(=O)c1ccc(N)cc1	0 (no)
Cc1cc(C(C)Nc2ccccc2)c2nc(N3CCOCC3)cc(=O)n2c1 (stereo not given)	1 (yes)
O=C1Nc2ccc(I)cc2C1=Cc1cc(Br)c(O)c(Br)c1	1 (yes)

Could you now look at the following compound, please?
QUERY: Assay result, entry COc1ccc(-c2cc(=O)c3c(O)cc(O[C@@H]4O[C@H](CO[C@@H]5O[C@@H](C)[C@H](O)[C@@H](O)[C@@H]5O)[C@@H](O)[C@H](O)[C@@H]4O)cc3o2)cc1O — outcome?
RESULT: 0 (no)

====

Test: Quantitative High-Throughput drug screen in 47 multiple myeloma cell lines against the NCATS MIPE library collection: AMO1_DSMZ cell viability assay (AID 1918927)
Details: AMO1 myeloma cells viability, CellTiter-Glo ATP luminescence, 48 h; series mostly up to 45.8 µM
Description: PI: Beverly A. Mock Ph.D. Laboratory of Cancer Biology and Genetics, Center for Cancer Research, National Cancer Institute, National Institute of Health, Bethesda, Maryland […] 5; Detector; 425V; Luminescence; Viewlux PerkinElmer. […] 1. […] Briefly, the corresponding myeloma cell lines were screened in 1,536-well plates with 500 cells, 5-uL per well for inhibition of cell viability (assessed by measuring ATP levels with CellTiterGlo). […]
Inconclusive results are not listed. Active and inactive are the calls of the source. Calls come from the whole dose curve; as a rule, active = well fitted cell-killing curve with a large enough effect; inconclusive = small, poorly fitted or top-dose-only effect, or effect the other way; inactive = no such curve, though single readings can be large or run the other way.
Outcome field: choose from T = active, F = inactive

COMPOUND	CLASS ASSIGNMENT
CCC[C@H](Nc1nc(-c2ccc(NC(=O)NCC)c(OC)c2)ncc1C)c1cccnc1	T
Oc1cc(O)cc(C=Cc2ccc(O)c(O)c2)c1	T
O=C1C(CCC(O)c2ccc(F)cc2)C(c2ccc(O)cc2)N1c1ccc(F)cc1 (stereo not drawn)	F
COc1ccc(-c2cc3nccn3c(Nc3ncccc3C(N)=O)n2)cc1OC	T
CC(O)=C(C#N)C(=O)Nc1ccc(C(F)(F)F)cc1	T
C[C@@H]1[C@H](C)CC[C@]2(C(=O)O)CC[C@]3(C)C(=CC[C@@H]4[C@@]5(C)CC[C@H](O)C(C)(C)[C@H]5CC[C@]43C)[C@@H]12	F
COc1cc2c(cc1OC)[C@@H]1Cc3ccc(OC)c(OC)c3CN1CC2	F
O=c1cc(-c2ccc(O)c(O)c2)oc2cc(O)cc(O)c12	F
CO[C@H]1C=CO[C@@]2(C)Oc3c(C)c(O)c4c(O)c(c(C=NN5CCN(C)CC5)c(O)c4c3C2=O)NC(=O)C(C)=CC=C[C@H](C)[C@H](O)[C@@H](C)[C@@H](O)[C@@H](C)[C@H](OC(C)=O)[C@H]1C	T
CC(C)[C@H](O)C(=O)N[C@@H](C)C(=O)N[C@@H]1C(=O)N(C)CCc2ccccc21	F

Now for another entry.
QUERY: Recorded call for CNC(=O)c1cc(COc2nnc(Nc3ccc(Cl)cc3)c3ccoc23)ccn1 ?
RESULT: T
